Experiment: Cmax ratio in cerebrospinal fluid to plasma in perfused Sprague-Dawley rat at 30 mg/kg, iv
Type: ADME, organism-based, CSF/Plasma
Design: dose 30 mg/kg, route intravenous
Conditions: cerebrospinal fluid and plasma
property: Kp
Please respond with just the number, no unit label.

Identify measured Kp corresponding to CCC(CC)O[C@@H]1C=C(C(=O)O)C[C@H](N)[C@H]1NC(C)=O [OSELTAMIVIR CARBOXYLATE]
0.003

---

Recorded Cmax, one value per entry.
Assay: Cmax in perfused Sprague-Dawley rat brain at 1000 mg/kg, po
Type: ADME, organism-based
Set-up: dose 1000 mg/kg, route oral
Give the number; ng/g is assumed, so skip it.

compound	unit.of.measurement	Cmax
CCC(CC)O[C@@H]1C=C(C(=O)O)C[C@H](N)[C@H]1NC(C)=O [OSELTAMIVIR CARBOXYLATE]	ng/g	641

Turning now to a further record.
Write down Cmax measured for item CCOC(=O)C1=C[C@@H](OC(CC)CC)[C@H](NC(C)=O)[C@@H](N)C1
2310

---

Experiment: Cmax in perfused Sprague-Dawley rat plasma at 1000 mg/kg, po
Type: ADME, organism-based
Parameters: dose 1000 mg/kg, route oral
Quick reference: Cmax of the listed items.
Kindly provide the numeric value in ng/mL only, without the unit symbol.

compound	Cmax [ng/mL]
CCOC(=O)C1=C[C@@H](OC(CC)CC)[C@H](NC(C)=O)[C@@H](N)C1 [OSELTAMIVIR]	16300

Query compound follows.
Please report the measured Cmax for CCC(CC)O[C@@H]1C=C(C(=O)O)C[C@H](N)[C@H]1NC(C)=O [OSELTAMIVIR CARBOXYLATE]
49700

---

Assay: Terminal half life in perfused Sprague-Dawley rat brain at 30 mg/kg, iv
Type: ADME, organism-based
Parameters: dose 30 mg/kg, route intravenous
Details: read-out: beta t1/2 (converted)
property: half-life (min)
Your answer should be a plain number; it is taken to be in min.

compound	unit.of.measurement	half-life
CCC(CC)O[C@@H]1C=C(C(=O)O)C[C@H](N)[C@H]1NC(C)=O [OSELTAMIVIR CARBOXYLATE]	min	28.7

Supply reported half-life belonging to this compound: CCOC(=O)C1=C[C@@H](OC(CC)CC)[C@H](NC(C)=O)[C@@H](N)C1 [OSELTAMIVIR]
90.6

---

Assay: AUC ratio in brain to plasma in perfused Sprague-Dawley rat at 30 mg/kg, iv
Format: ADME, organism-based
Parameters: dose 30 mg/kg, route intravenous
Details: brain and plasma, read-out: Ratio AUC
property: Kp

Using the record for CCC(CC)O[C@@H]1C=C(C(=O)O)C[C@H](N)[C@H]1NC(C)=O [OSELTAMIVIR CARBOXYLATE] , state its measured Kp.
< 0.004

---

Assay: Clearance in Sprague-Dawley rat at 30 mg/kg, iv
Type: ADME, organism-based
Set-up: dose 30 mg/kg, route intravenous
Details: in vivo
property: clearance (mL/min/kg)
Numeric only. Scale: mL/min/kg

Return clearance (reported value) for this compound: CCOC(=O)C1=C[C@@H](OC(CC)CC)[C@H](NC(C)=O)[C@@H](N)C1 [OSELTAMIVIR]
93.9

---

Assay: Cmax in perfused Sprague-Dawley rat plasma at 30 mg/kg, iv
Type: ADME, organism-based
Set-up: dose 30 mg/kg, route intravenous
Reported Cmax values follow for various molecules
Entry rule: numbers only, all in ng/mL.

molecule	property	endpoint.value
CCOC(=O)C1=C[C@@H](OC(CC)CC)[C@H](NC(C)=O)[C@@H](N)C1 [OSELTAMIVIR]	Cmax	12500

Please turn your attention to the following entry.
Note down Cmax recorded for CCC(CC)O[C@@H]1C=C(C(=O)O)C[C@H](N)[C@H]1NC(C)=O [OSELTAMIVIR CARBOXYLATE]
86300

Taken from ChEMBL document CHEMBL1687750.
